Reference source: patent EP4796538A1

# experimental.system: RET (G810S/M918T) (Homo sapiens, UniProt P07949, G810S/M918T)
# Construct: purchased Reaction Biology Corp
# Sequence (P07949 29-1114 G810S/M918T): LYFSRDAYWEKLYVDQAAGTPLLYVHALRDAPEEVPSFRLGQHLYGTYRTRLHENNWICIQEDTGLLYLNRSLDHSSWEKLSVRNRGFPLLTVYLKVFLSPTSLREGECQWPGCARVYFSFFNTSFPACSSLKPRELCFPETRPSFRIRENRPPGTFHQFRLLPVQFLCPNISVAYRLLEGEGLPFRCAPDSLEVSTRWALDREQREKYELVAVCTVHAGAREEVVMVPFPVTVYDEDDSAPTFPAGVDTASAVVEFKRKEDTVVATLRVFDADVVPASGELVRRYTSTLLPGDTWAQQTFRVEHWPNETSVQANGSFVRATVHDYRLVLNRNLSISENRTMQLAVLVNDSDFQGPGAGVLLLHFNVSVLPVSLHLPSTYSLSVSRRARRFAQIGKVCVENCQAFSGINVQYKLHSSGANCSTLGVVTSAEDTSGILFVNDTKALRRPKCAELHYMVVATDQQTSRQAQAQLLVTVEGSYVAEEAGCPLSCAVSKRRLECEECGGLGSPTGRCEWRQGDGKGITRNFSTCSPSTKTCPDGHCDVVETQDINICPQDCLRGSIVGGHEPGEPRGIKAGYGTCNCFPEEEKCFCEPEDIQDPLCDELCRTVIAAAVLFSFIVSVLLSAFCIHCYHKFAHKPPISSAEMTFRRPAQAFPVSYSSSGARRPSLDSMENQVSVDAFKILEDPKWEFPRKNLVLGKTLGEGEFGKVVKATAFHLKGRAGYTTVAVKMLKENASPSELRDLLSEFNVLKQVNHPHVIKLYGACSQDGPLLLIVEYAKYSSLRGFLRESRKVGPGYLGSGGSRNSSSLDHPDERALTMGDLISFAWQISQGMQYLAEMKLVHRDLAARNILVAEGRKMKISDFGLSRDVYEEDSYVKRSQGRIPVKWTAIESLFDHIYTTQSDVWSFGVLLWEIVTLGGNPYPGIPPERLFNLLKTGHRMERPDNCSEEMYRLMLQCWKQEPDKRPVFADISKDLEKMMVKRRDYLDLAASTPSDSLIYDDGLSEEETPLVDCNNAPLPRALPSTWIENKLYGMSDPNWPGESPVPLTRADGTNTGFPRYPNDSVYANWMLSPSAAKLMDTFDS
# test: Kinase panel inhibition, radiolabeled [γ-33P] ATP (Reaction Biology Corp)
# Assay type: biochemical
# condition.parameters: compound at 10 uM; ATP 1 µM; Data 1; read-out: % Enzyme Activity (relative to DMSO controls) RET (G810S/M918T) Data 1
Property: remaining activity at 10 µM; scope: individual compounds
Reply numerically in %, unit not repeated.

Nc1cc(-c2cnc(N3CC(Oc4cccc(F)c4)C3)nc2)c2nccnc2c1 = 0.28
CCS(=O)(=O)N1CCN(c2ccc(-c3cc(N)cc4nccnc34)cn2)CC1 = 15.7
CCCCNc1cc(-c2ccc(N3CC(Oc4cccc(F)c4)C3)nc2)c2nccnc2c1 = 2.18
CCCNc1cc(-c2ccc(N3CC[C@H](NC(=O)c4ccccc4F)C3)nc2)c2nccnc2c1 = -0.06
Nc1cc(-c2ccc(N3CC[C@H](NC(=O)c4ccccc4F)C3)nc2)c2nccnc2c1 = -0.09

For RET (G810S/M918T) (Homo sapiens, UniProt P07949, G810S/M918T), provide remaining activity at 10 µM of O=C(Nc1cc(-c2ccc(N3CC(Oc4cccc(F)c4)C3)nc2)c2nccnc2c1)c1ccco1 please. 13.6

Ok, now CC(C)Nc1cc(-c2ccc(N3CC[C@H](NC(=O)c4ccccc4F)C3)nc2)c2nccnc2c1 5.08

Ok, now O=C(Nc1cc(-c2ccc(N3CC(Oc4cccc(F)c4)C3)nc2)c2nccnc2c1)c1ccccn1 49.5

Ok, now CN1CCN(c2ccc(-c3cc(N)cc4nccnc34)cn2)CC1 48.1

Ok, now CCNc1cc(-c2ccc(N3CC(Oc4cccc(F)c4)C3)nc2)c2nccnc2c1 -0.47

Ok, now CNc1cc(-c2ccc(N3CC(Oc4cccc(F)c4)C3)nc2)c2nccnc2c1 0.05
